# Test system: SK-MEL-2 melanoma
# Procedure Details: NCI tumour cell line growth inhibition, 48 h
Quantity Kind: TGI

{"columns": ["Compound", "Reported"],
 "data": [
  ["COC(=O)C(C(=O)OC)C1CCCC(=O)C1 (stereo not drawn)", "0.503 µM"],
  ["O=C1C2=C(CC3=C(C2)CS(=O)(=O)C3)C(=O)C2=C1CC1=C(C2)CS(=O)(=O)C1", "> 75.2 µM"],
  ["COc1cc(N(C)C)c(OC)cc1/C=C\\c1ccnc2ccccc12", "8.03 µM"]
]}

----------
# Tested on: SK-MEL-28 melanoma
# Procedure Details: NCI tumour cell line growth inhibition, 48 h; in the data active = GI50 below about 0.43 µM; inactive = the rest
Classes used: active, inactive

{"columns": ["Molecule", "Category Label"],
 "data": [
  ["CC(=O)C1=C(O)C=C2Oc3c(C(=O)/C=C/c4c(Cl)cccc4Cl)c(O)c(C)c(O)c3[C@]2(C)C1=O", "inactive"],
  ["C=C1CCC2C3(C)COC(c4ccccc4)OC3CCC2(C)C1/C=C/C1=CCOC1=O (centres undefined)", "inactive"],
  ["Cn1c2c(c3ccc([N+](=O)[O-])cc3c1=O)C(=O)c1ccccc1-2", "inactive"],
  ["C#CCSc1cc(Cl)c(C)cc1S(=O)(=O)Nc1nc2ccccc2o1", "inactive"],
  ["C=CC(=O)Nc1cc(C)ccc1Nc1nc(Nc2cc(OC)ncc2C)ncc1C(F)(F)F", "active"],
  ["CCOC(=O)c1cc2c(cc1Cl)SC(N(c1ccc(OC)cc1)S(=O)(=O)c1ccc(Cl)cc1)=NS2(=O)=O", "inactive"],
  ["CCN(CC)CC(O)CNc1c2ccc([N+](=O)[O-])cc2nc2cc(OC)c(OC)cc12 (centres undefined)", "inactive"],
  ["CN(Cc1ccccc1)c1ccc(CO)c(Cl)c1", "inactive"],
  ["COc1cccc(NC(=O)c2sc3nc(C)c(C(O)c4ccccc4)cc3c2N)c1 (centres undefined)", "inactive"]
]}
